Where do the numbers come from? From patent US8481586B2.

molecular target: PIM-2 (Homo sapiens (Human), UniProt Q9P1W9); assay: inhibition test on kinase PIM-2 (residual activity, IC50); format: biochemical; conditions: product at 10 μmol/L; Table 2; N.I. = not inhibitory; read-out: Percentage of residual activity PIM-2
Sequence (Q9P1W9 whole entry, species assumed): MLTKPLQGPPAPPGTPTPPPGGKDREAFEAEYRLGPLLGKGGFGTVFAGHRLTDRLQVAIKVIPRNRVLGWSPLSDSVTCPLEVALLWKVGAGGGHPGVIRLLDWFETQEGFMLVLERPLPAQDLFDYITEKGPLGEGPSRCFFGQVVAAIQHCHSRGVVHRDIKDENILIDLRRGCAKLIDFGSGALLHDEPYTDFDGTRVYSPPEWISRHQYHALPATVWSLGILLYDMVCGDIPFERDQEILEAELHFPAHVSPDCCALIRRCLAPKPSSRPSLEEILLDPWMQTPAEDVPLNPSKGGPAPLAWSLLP
Hi! Just check whether remaining activity at 10 µM is below 30%. Below gives condition met, equal or above gives condition not met.

> print(dat)
                           substance.smiles                cat
1      O=Cc1c[nH]c2c1ccc1c3cc(F)ccc3[nH]c12      condition met
2  O=S(=O)(c1ccccc1)n1ccc2ccc3c4ccccc4[nH]c3c21  condition not met
3          OCc1c[nH]c2c1ccc1c3ccccc3[nH]c12  condition not met
4    Clc1cc(Cl)c2c(c1)[nH]c1c2ccc2cc[nH]c21  condition not met
5     O=Cc1c[nH]c2c1ccc1c3cccc(Br)c3[nH]c12      condition met
6      O=Cc1c[nH]c2c1ccc1c3cccc(F)c3[nH]c12      condition met
7  O=Cc1c[nH]c2c1ccc1c3cc(-c4ccc(C(F)(F)F)cc4)ccc3[nH]c12  condition not met
